Kindly state IC50 for each of the entries shown.
- SYSTEM: human recombinant BACE2 (Homo sapiens (Human), UniProt Q9Y5Z0)
- Sequence (Q9Y5Z0 63-518): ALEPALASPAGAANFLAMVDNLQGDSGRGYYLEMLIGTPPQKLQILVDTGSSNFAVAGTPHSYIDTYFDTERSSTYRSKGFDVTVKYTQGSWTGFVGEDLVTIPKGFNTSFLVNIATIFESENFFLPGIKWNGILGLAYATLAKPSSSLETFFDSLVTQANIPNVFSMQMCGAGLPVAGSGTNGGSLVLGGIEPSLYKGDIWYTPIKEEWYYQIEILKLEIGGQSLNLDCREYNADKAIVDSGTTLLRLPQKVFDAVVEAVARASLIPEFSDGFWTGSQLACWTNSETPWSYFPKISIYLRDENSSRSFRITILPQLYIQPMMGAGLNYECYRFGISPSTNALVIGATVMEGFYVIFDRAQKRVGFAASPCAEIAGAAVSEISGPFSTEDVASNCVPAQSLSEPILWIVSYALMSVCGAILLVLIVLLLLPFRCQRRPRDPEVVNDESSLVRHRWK
- PROCEDURE TEXT: In vitro enzymatic BACE2 FRET assay
- CONDITION SUMMARY: read-out: BACE2 Enzyme IC50
Give bare numbers, in nM.

Guide cases for IC50, answers given:
INPUT SMILES: Cc1cnc(COc2cnc(/C(F)=C/c3ccc(F)c([C@@]4(C)N=C(N)N(C)S(=O)(=O)C45CC5)c3)cn2)o1
RESULT UNIT: nM
IC50: 907
--
INPUT SMILES: CN1C(N)=N[C@](C)(c2cc(/C=C(/F)c3ccc(Cl)cn3)cc(F)c2F)CS1(=O)=O
RESULT UNIT: nM
IC50: 121
--
INPUT SMILES: CN1C(N)=N[C@](C)(c2cc(/C=C(\F)c3cnc(OCc4cocn4)cn3)cc(F)c2F)CS1(=O)=O
RESULT UNIT: nM
IC50: 84

query: What does the record list as IC50 for CC1(C)C(N)=N[C@](C)(c2cc(/C=C(\F)c3ccc(Cl)cn3)ccc2F)CS1(=O)=O ?
result: 3

----------
- SYSTEM: human recombinant BACE2 (Homo sapiens (Human))
- PROCEDURE TEXT: In vitro enzymatic BACE2 FRET assay
- CONDITION SUMMARY: read-out: BACE2 Enzyme IC50
Please provide measured IC50 for the entries that follow.
Numbers only, in nM.

Record excerpt, results attached:
INPUT SMILES: Cc1cnc(COc2cnc(/C(F)=C/c3cc(F)c(F)c([C@]4(C)CS(=O)(=O)N(C)C(N)=N4)c3)cn2)o1
SYSTEM: human recombinant BACE2 (Homo sapiens (Human))
ASSAY METRIC: IC50
REPORTED VALUE: 111
//
INPUT SMILES: CC1(C)C(N)=N[C@](C)(c2cc(/C=C(\F)c3cnc(Cl)cn3)cnc2F)CS1(=O)=O
SYSTEM: human recombinant BACE2 (Homo sapiens (Human))
ASSAY METRIC: IC50
REPORTED VALUE: 56
//
INPUT SMILES: CC1(C)C(N)=N[C@](C)(c2cc(/C=C(\F)c3cnc(OCC(F)(F)C(F)F)cn3)ccc2F)CS1(=O)=O
SYSTEM: human recombinant BACE2 (Homo sapiens (Human))
ASSAY METRIC: IC50
REPORTED VALUE: 330

For every listed record, write down its IC50.
1. Cc1cc(C#N)cnc1/C(F)=C/c1cc(F)c(F)c([C@]2(C)CS(=O)(=O)N(C)C(N)=N2)c1
2. COCCOc1cnc(/C(F)=C/c2ccc(F)c([C@@]3(C)N=C(N)[C@@]4(CF)CC[C@@H]3S4(=O)=O)c2)cn1

result:
[9, 163]

Quick batch: IC50 for everything below.
1. C[C@]1(c2cc(/C=C(\F)c3cnc(OCCF)cn3)ccc2F)N=C(N)[C@@]2(CF)CC[C@@H]1S2(=O)=O
2. CN1C(N)=N[C@](C)(c2cc(/C=C(\F)c3nc(C#N)cs3)ccc2F)CS1(=O)=O

result:
1: 151; 2: 6

----------
Would you mind telling me the reported IC50 of each entry?
- SYSTEM: human recombinant BACE2 (Homo sapiens (Human), UniProt Q9Y5Z0)
- PROCEDURE TEXT: In vitro enzymatic BACE2 FRET assay
- CONDITION SUMMARY: read-out: BACE2 Enzyme IC50
Give bare numbers, in µM.

COMPOUND: CC1(C)C(N)=N[C@](C)(c2cc(/C=C(\F)c3cnc(OCC4CCC4)cn3)ccc2F)CS1(=O)=O
RESULT UNIT: µM
REPORTED VALUE: 0.107
//
COMPOUND: CC1(C)C(N)=N[C@](C)(c2cc(/C=C(\F)c3cnc(O)cn3)ccc2F)CS1(=O)=O
RESULT UNIT: µM
REPORTED VALUE: 0.203
//
COMPOUND: CN1C(N)=N[C@](C)(c2cc(/C=C(\F)c3ccc(C#N)cn3)ccc2F)C2(CC2)S1(=O)=O
RESULT UNIT: µM
REPORTED VALUE: 0.175
//
COMPOUND: Cc1cc(COc2cnc(/C(F)=C/c3ccc(F)c([C@@]4(C)N=C(N)N(C)S(=O)(=O)C45CC5)c3)cn2)no1
RESULT UNIT: µM
REPORTED VALUE: 0.732
//
COMPOUND: Cc1noc(COc2cnc(/C(F)=C/c3cc(F)c(F)c([C@]4(C)CS(=O)(=O)N(C)C(N)=N4)c3)cn2)n1
RESULT UNIT: µM
REPORTED VALUE: 0.421

Consider now this further compound.
query: Please provide the recorded IC50 for C#CCOc1cnc(/C(F)=C/c2ccc(F)c([C@@]3(C)N=C(N)C(C)(C)S(=O)(=O)[C@H]3F)c2)cn1 (single isomer, unassigned) , tested on human recombinant BACE2 (Homo sapiens (Human), UniProt Q9Y5Z0).
result: 0.086

----------
- SYSTEM: human recombinant BACE2 (Homo sapiens (Human), UniProt Q9Y5Z0)
- PROCEDURE TEXT: In vitro enzymatic BACE2 FRET assay
- CONDITION SUMMARY: read-out: BACE2 Enzyme IC50
ASSAY METRIC: IC50 (nM)
Answers are plain numbers, in nM.

Solved entries (count: 5):
MOLECULE: CN1C(N)=N[C@](C)(c2cc(/C=C(\F)c3ccc(C#N)cn3)cc(F)c2F)CS1(=O)=O [Example 107]
ASSAY METRIC: IC50
REPORTED VALUE: 25
//
MOLECULE: CC1(C)C(N)=N[C@](C)(c2cc(/C=C(\F)c3cnc(Cl)cn3)ccc2F)C(F)(F)S1(=O)=O [Example 191]
ASSAY METRIC: IC50
REPORTED VALUE: 52
//
MOLECULE: CC1(C)C(N)=N[C@](C)(c2cc(/C=C(\F)c3cnc(Cl)cn3)ccc2F)CS1(=O)=O [Example 159]
ASSAY METRIC: IC50
REPORTED VALUE: 3
//
MOLECULE: CCC#C[C@@H](C)Oc1cnc(/C(F)=C/c2ccc(F)c([C@]3(C)CS(=O)(=O)C(C)(C)C(N)=N3)c2)cn1 (single isomer, unassigned) [Example 216]
ASSAY METRIC: IC50
REPORTED VALUE: 364
//
MOLECULE: Cc1noc(COc2cnc(/C(F)=C/c3ccc(F)c([C@@]4(C)N=C(N)[C@@]5(CF)CC[C@@H]4S5(=O)=O)c3)cn2)n1 [Example 115]
ASSAY METRIC: IC50
REPORTED VALUE: 192

Hello, I would appreciate it if you could give IC50 for each entry below.
1. CC#CCOc1cnc(/C(F)=C/c2ccc(F)c([C@@]3(C)N=C(N)N(C)S(=O)(=O)C3(C)C)c2)cn1 [Example 185]
2. Cc1cc(COc2cnc(/C(F)=C/c3cc(F)c(F)c([C@]4(C)CS(=O)(=O)N(C)C(N)=N4)c3)cn2)on1 [Example 221]
3. CN1C(N)=N[C@](C)(c2cc(/C=C(\F)c3cnc(C#CC4CC4)cn3)ccc2F)CS1(=O)=O [Example 248]
4. CC1(C)C(N)=N[C@](C)(c2cc(/C=C(\F)c3cnc(OCc4ncco4)cn3)ccc2F)CS1(=O)=O [Example 129]
5. CC1(C)C(N)=N[C@](C)(c2cc(/C=C(\F)c3ncc(C(F)(F)F)cc3Cl)ccc2F)CS1(=O)=O [Example 264]

result:
1. 159
2. 197
3. 16
4. 56
5. 38

Please report IC50 for every entry that follows.
1. CN1C(N)=N[C@](C)(c2cc(/C=C(\F)c3cc4c(cn3)OCO4)ccc2F)CS1(=O)=O [Example 257]
2. C#CCOc1cnc(/C(F)=C/c2ccc(F)c([C@@]3(C)N=C(N)C(C)(C)S(=O)(=O)[C@@H]3F)c2)cn1 (single isomer, unassigned) [Example 201]

result:
235
82

----------
I'd appreciate it if you could supply pIC50 values for the items below.
- SYSTEM: human recombinant BACE2 (Homo sapiens (Human), UniProt Q9Y5Z0)
- PROCEDURE TEXT: In vitro enzymatic BACE2 FRET assay
- CONDITION SUMMARY: read-out: BACE2 Enzyme IC50
Give bare numbers, as −log10 of the molar value.

Use these answered entries as a reference point.
INPUT SMILES: CN1C(N)=N[C@](C)(c2cc(/C=C(\F)c3cnc(OCC4CCC4)cn3)ccc2F)CS1(=O)=O
pIC50: 6.95
//
INPUT SMILES: C[C@]1(c2cc(/C=C(\F)c3cnc(OCC(F)F)cn3)ccc2F)N=C(N)[C@@]2(CF)CC[C@@H]1S2(=O)=O
pIC50: 6.91
//
INPUT SMILES: COC[C@H](C)Oc1cnc(/C(F)=C/c2ccc(F)c([C@]3(C)CS(=O)(=O)N(C)C(N)=N3)c2)cn1
pIC50: 6.97

query: Tell me the measured pIC50 of CN1C(N)=N[C@](C)(c2cc(/C=C(\F)c3cnc(Cl)cn3)ccc2F)C(C)(C)S1(=O)=O , please.
result: 7.12
